- Test summary: yeast display, Sf9 membrane polyspecificity reagent, FACS + sequencing; frameworks hold sequencing errors
Quantity kind: polyreactivity (PSR sort gate)

Known polyreactivity (PSR sort gate) results, listed for orientation:
Record summary for QVQLVESGGGLVQAGGSLRLSCAASGSTFTLYAKGWYRQAPGKERELVAAINGAGSTYYADSVKGRFTISRDNAKNTVYLQMNSLKPEDTAVYYCAKDLQYGWYDYWGQGTQVTVSS : reported polyreactivity (PSR sort gate) = low polyreactivity

Record summary for QVQLVESGGGLVQAGGSLRLSCAASGNTFNGYTMGWYRQATGKERELVAVISSYGGRTNYADSVKGRFTISRDNAKITLYLQLNSLKTEVTAVYYCAARSSRLPHIYGYWGQGTQVTVSS : reported polyreactivity (PSR sort gate) = low polyreactivity

Record summary for QVQLVESGGGLVQAGGSLRLSCAASGRTFYRYAMGWYRQAPGKERELVAAITWSGGSTYYADSVKGRFTTSRDNAKNTVYLQMNSLKPEDTAVYYCAADAALITYYGWADMYYWGQGTQVTVSS : reported polyreactivity (PSR sort gate) = low polyreactivity

Record summary for QVQLVESGGGLVQAGGSLRLSCAASGFIFYRYAMGWYRQAPGKERELVAAISGSGGRTYYADSVKGRFTISRDNAKNTVYLQMNSLKPEDTAVYYCAADKQAYVTDDYWGKGTQVTVSS : reported polyreactivity (PSR sort gate) = high polyreactivity

Consider the additional sequence presented here.
Record summary for QVQLVESGGGLVQAGGSLRVSCAASGISFGHYTMGWYRQATGKERELVATITTSGGRTYYADSVKGRFTISRDNAKNTVYLQMNSLKPEDTAVYYCATLSWYPFEYWGQGTQVTVSS : reported polyreactivity (PSR sort gate) = high polyreactivity

###

- Test summary: yeast display, Sf9 membrane polyspecificity reagent, FACS + sequencing; frameworks hold sequencing errors
Quantity kind: polyreactivity (PSR sort gate)

Record summary for QVQLVESGGGLVQAGGSLRLSCAASGFTFVRYAMGWYRQAPGKERELVAAISSGGSTNYADSVKGRFTISRDNAKNTVYLQMNSLKPEDTAVYYCNAVSRKVYPGPMDYWGQGTQVTVSS : reported polyreactivity (PSR sort gate) = high polyreactivity

Record summary for QVQLVESGGGLVQAGGSLRLSCAASGFIFSTYAMGWYRQAPGKERELVAAITTSGSSTYYADSVKGRFTISRDNAKNTVYLQMNSLKPEDTAVYYCNAKYGYSAATDRGNYWGQGTQVTVSS : reported polyreactivity (PSR sort gate) = high polyreactivity

###

- Test summary: yeast display, Sf9 membrane polyspecificity reagent, FACS + sequencing; frameworks hold sequencing errors
Quantity kind: polyreactivity (PSR sort gate)

Known polyreactivity (PSR sort gate) results, listed for orientation:
Record summary for QVQLVESGGGLVQAGGSLRLSCAASGGIFYHNAMGWYRQAPGKERELVAAISGRGGRTYYADSVKGRFTISRDNAKNTVYLQMNSLKPEDTAVYYCAAGGQARHDYWGQGTQVTVSS : reported polyreactivity (PSR sort gate) = low polyreactivity

Record summary for QVQLVESGGGLVQAGGSLRLSCAASGGIFLSNAMGWSRQAPGKERELVAAISRSGGSTYYADSVKGRFTISRDNAKNTVYLQMNSLKPEDTAVYYCAARWTRNYGMNYWGQGTKVTVSS : reported polyreactivity (PSR sort gate) = high polyreactivity

Record summary for QVQLVESGGGLVQAGGSLRLSCAASGRIFADNGMGWYRQAPGKERELVASITSSGGDTYYADSVKGRFTISRDNAKNTVYLQMNSLKPEDTAVYYCATEFSWLFYGVWVVTFGDDYWGQGTQVTVSS : reported polyreactivity (PSR sort gate) = low polyreactivity

Record summary for QVQLVESGGRLVQAGGSLRLSSAASGRTFRTYALGWYRQAPGTEREFVAAISRRSGITYYADSVKGRFTISRDNAKNTVYLQMNSLKPEDTAVYYCAATGYTGYSRYYYWGQGTQVTVSS : reported polyreactivity (PSR sort gate) = high polyreactivity

Consider the additional sequence presented here.
Record summary for QVQLVESGGGLVQAGGSLRLSCAASGYNFLRNAMGWYRQAPGKERELVAAISYSGGGTYYADSVKGRFTISRDNAKNTVYLQMNSLKPEDTAVYYCNVAQRYYGNFWSESIEYDYWGLGTQVTVSS : reported polyreactivity (PSR sort gate) = low polyreactivity
